Data provenance is patent US20210347873A1.

Molecular target: T1, cynomolgus BLyS (full length, arginine to histidine at position 132) on CHO-K1 cells (cynomolgus, UniProt Q9Y275 1-285 (human entry))
T1 construct: also called cyno BLyS; CHO-K1 cynoBLyS
T1 chain: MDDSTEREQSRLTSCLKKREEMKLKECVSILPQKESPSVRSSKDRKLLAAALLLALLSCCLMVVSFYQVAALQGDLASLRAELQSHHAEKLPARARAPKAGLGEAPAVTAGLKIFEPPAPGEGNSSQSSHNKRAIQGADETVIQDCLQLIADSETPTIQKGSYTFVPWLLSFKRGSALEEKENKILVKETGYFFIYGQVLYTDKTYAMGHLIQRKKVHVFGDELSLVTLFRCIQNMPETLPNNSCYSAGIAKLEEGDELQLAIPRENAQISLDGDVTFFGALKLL
Test: flow cytometry, CHO-K1 cynoBLyS cells, antibody 13.3 nM
Items are presented alongside their recorded MFI.
reported_property: MFI (MFI)

INSERT INTO measurements (binder, reading_unit, experimental_value) VALUES
  ('8E7D9C7F5 (antibody, V domains shown, Mouse hybridoma monoclonal antibody purified on Protein G) VH: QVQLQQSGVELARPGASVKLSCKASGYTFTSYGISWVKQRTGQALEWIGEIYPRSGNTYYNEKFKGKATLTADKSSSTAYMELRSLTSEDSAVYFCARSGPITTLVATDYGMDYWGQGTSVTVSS VL: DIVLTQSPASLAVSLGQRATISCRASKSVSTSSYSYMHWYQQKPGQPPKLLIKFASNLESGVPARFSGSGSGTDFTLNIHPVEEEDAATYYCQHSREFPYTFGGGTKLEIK', 'MFI', 1170),
  ('2-1G11 (antibody, V domains shown, From a human naive scFv phage library; also called human BLyS antibody 2-1G11) VH: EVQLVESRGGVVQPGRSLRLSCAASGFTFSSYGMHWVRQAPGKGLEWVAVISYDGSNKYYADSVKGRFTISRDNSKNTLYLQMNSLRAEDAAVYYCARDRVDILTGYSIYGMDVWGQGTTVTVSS VL: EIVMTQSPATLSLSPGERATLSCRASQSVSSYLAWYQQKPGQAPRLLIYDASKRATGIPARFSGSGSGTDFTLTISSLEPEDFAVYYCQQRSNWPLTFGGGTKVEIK', 'MFI', 1450),
  ('97A3C2H4 (antibody, V domains shown, Mouse hybridoma monoclonal antibody purified on Protein G) VH: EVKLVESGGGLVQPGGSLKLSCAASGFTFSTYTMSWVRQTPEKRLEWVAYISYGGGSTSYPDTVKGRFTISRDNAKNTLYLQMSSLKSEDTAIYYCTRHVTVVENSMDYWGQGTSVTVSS VL: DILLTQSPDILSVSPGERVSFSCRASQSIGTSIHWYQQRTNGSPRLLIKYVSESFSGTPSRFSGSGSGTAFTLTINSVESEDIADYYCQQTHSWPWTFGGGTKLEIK', 'MFI', 943);
